# assay overview: Selectivity index, ratio of IC50 for cytotoxicity against human HDF cells to IC50 for anticancer activity against human PC-3 cells
# Format: toxicity, cell-based
# run conditions: HDF cells versus PC-3 cells, read-out: Ratio IC50
endpoint name: selectivity ratio
Answers are plain numbers.

Known selectivity ratio results, listed for orientation:
IN: Record request: selectivity ratio value, item CO[C@H]1/C=C\C=C(/C)C(=O)NC2=CC(=O)C(NCc3cn([C@@H]4OC[C@@H](OC(C)=O)[C@H](OC(C)=O)[C@H]4OC(C)=O)nn3)=C(C[C@@H](C)C[C@H](OC)[C@H](O)[C@@H](C)/C=C(\C)[C@@H]1OC(N)=O)C2=O
OUT: 1.3

IN: Fill in: selectivity ratio of CO[C@H]1/C=C\C=C(/C)C(=O)NC2=CC(=O)C(NCc3cn([C@@H]4O[C@H](CO)[C@@H](O)[C@H](O)[C@H]4O)nn3)=C(C[C@@H](C)C[C@H](OC)[C@H](O)[C@@H](C)/C=C(\C)[C@@H]1OC(N)=O)C2=O is ___
OUT: 1.68

IN: Recorded selectivity ratio of CO[C@H]1/C=C\C=C(/C)C(=O)NC2=CC(=O)C(NCc3cn(Cc4ccc(C#N)cc4)nn3)=C(C[C@@H](C)C[C@H](OC)[C@H](O)[C@@H](C)/C=C(\C)[C@@H]1OC(N)=O)C2=O , please.
OUT: 2.09

IN: Recorded selectivity ratio of COC(=O)C[C@H]1O[C@@H](n2cc(CNC3=C4C[C@@H](C)C[C@H](OC)[C@H](O)[C@@H](C)/C=C(\C)[C@H](OC(N)=O)[C@@H](OC)/C=C\C=C(/C)C(=O)NC(=CC3=O)C4=O)nn2)[C@H](O)[C@@H](O)[C@@H]1O , please.
OUT: 1.65

IN: Can you look up the measured selectivity ratio of CO[C@H]1/C=C\C=C(/C)C(=O)NC2=CC(=O)C(NCc3cn([C@@H]4O[C@H](CO)[C@@H](O)[C@H](O)[C@H]4NC(C)=O)nn3)=C(C[C@@H](C)C[C@H](OC)[C@H](O)[C@@H](C)/C=C(\C)[C@@H]1OC(N)=O)C2=O for me?
OUT: 1.16

Fill in selectivity ratio for each of the 2 compounds listed.
1. CO[C@H]1/C=C\C=C(/C)C(=O)NC2=CC(=O)C(NCc3cn(CCN4C(=O)c5ccccc5C4=O)nn3)=C(C[C@@H](C)C[C@H](OC)[C@H](O)[C@@H](C)/C=C(\C)[C@@H]1OC(N)=O)C2=O
2. CO[C@H]1/C=C\C=C(/C)C(=O)NC2=CC(=O)C(NCc3cn(Cc4ccc([N+](=O)[O-])cc4)nn3)=C(C[C@@H](C)C[C@H](OC)[C@H](O)[C@@H](C)/C=C(\C)[C@@H]1OC(N)=O)C2=O

OUT:
[1.52, 1.28]

###

# assay overview: Selectivity index, ratio of IC50 for cytotoxicity against human HDF cells to IC50 for anticancer activity against human PC-3 cells
# Assay type: toxicity, cell-based
# run conditions: HDF cells versus PC-3 cells, read-out: Ratio IC50
Starred links: 1 amine or outer side, 2 acyl side, 3 side chain; linkers in the order of their positions; H or OH if unused. Positions of bridges follow the written chain, without caps; N, C: chain ends. Non-standard residues stand in square brackets, D forms with d. Residues, ends and D or L forms follow the SMILES beside them. Chains are numbered I, II in the order given. Actinocin(9to1) = Cc1c2oc3c(C)ccc(C(=O)[*:1])c3nc-2c(C(=O)[*:2])c(N)c1=O; NMeV = CN[C@H](C(=O)O)C(C)C; Sar = CNCC(=O)O
endpoint name: selectivity ratio

IN: Given CO[C@H]1/C=C\C=C(/C)C(=O)NC2=CC(=O)C(NCc3cn(CC=C(C)C)nn3)=C(C[C@@H](C)C[C@H](OC)[C@H](O)[C@@H](C)/C=C(\C)[C@@H]1OC(N)=O)C2=O , state its recorded selectivity ratio.
OUT: 1.15

IN: I have this molecule here, CO[C@H]1/C=C\C=C(/C)C(=O)NC2=CC(=O)C(NCc3cn(CC4OCCO4)nn3)=C(C[C@@H](C)C[C@H](OC)[C@H](O)[C@@H](C)/C=C(\C)[C@@H]1OC(N)=O)C2=O , and I need its recorded selectivity ratio.
OUT: 1.73

IN: What does the record list as selectivity ratio for CO[C@H]1/C=C\C=C(/C)C(=O)NC2=CC(=O)C(NCCN=[N+]=[N-])=C(C[C@@H](C)C[C@H](OC)[C@H](O)[C@@H](C)/C=C(\C)[C@@H]1OC(N)=O)C2=O ?
OUT: 2.26

IN: Which selectivity ratio reading was recorded for the molecule CO[C@H]1/C=C\C=C(/C)C(=O)NC2=CC(=O)C(NCc3cn([C@@H]4O[C@H](CO)[C@H](O)[C@H](O)[C@H]4O)nn3)=C(C[C@@H](C)C[C@H](OC)[C@H](O)[C@@H](C)/C=C(\C)[C@@H]1OC(N)=O)C2=O ?
OUT: 1.83

IN: // selectivity ratio lookup, key: Cc1c2oc3c(C)ccc(C(=O)N[C@@H]4C(=O)N[C@H](C(C)C)C(=O)N5CCC[C@H]5C(=O)N(C)CC(=O)N(C)[C@@H](C(C)C)C(=O)O[C@@H]4C)c3nc-2c(C(=O)N[C@@H]2C(=O)N[C@H](C(C)C)C(=O)N3CCC[C@H]3C(=O)N(C)CC(=O)N(C)[C@@H](C(C)C)C(=O)O[C@@H]2C)c(N)c1=O [DACTINOMYCIN] (I: T[dV]P[Sar][NMeV] / II: T[dV]P[Sar][NMeV]; ester I:1-I:C, II:1-II:C; linker I:N-II:N via Actinocin(9to1))
OUT: 2.3

IN: Field request: selectivity ratio | item: CO[C@H]1/C=C\C=C(/C)C(=O)NC2=CC(=O)C(NCc3c[nH]nn3)=C(C[C@@H](C)C[C@H](OC)[C@H](O)[C@@H](C)/C=C(\C)[C@@H]1OC(N)=O)C2=O
OUT: 2.57

IN: Request the reported selectivity ratio associated with CO[C@H]1/C=C\C=C(/C)C(=O)NC2=CC(=O)C(NCc3cn([C@@H]4O[C@H](COCc5ccccc5)[C@@H](OCc5ccccc5)[C@H](OCc5ccccc5)[C@H]4NC(C)=O)nn3)=C(C[C@@H](C)C[C@H](OC)[C@H](O)[C@@H](C)/C=C(\C)[C@@H]1OC(N)=O)C2=O
OUT: 1.62

IN: Bench note: what selectivity ratio did CO[C@H]1/C=C\C=C(/C)C(=O)NC2=CC(=O)C(NCc3cn(CC4CCCCC4)nn3)=C(C[C@@H](C)C[C@H](OC)[C@H](O)[C@@H](C)/C=C(\C)[C@@H]1OC(N)=O)C2=O show?
OUT: 1.53

IN: Suppose we examine the molecule CO[C@H]1/C=C\C=C(/C)C(=O)NC2=CC(=O)C(NCCn3cc(C(=O)O)nn3)=C(C[C@@H](C)C[C@H](OC)[C@H](O)[C@@H](C)/C=C(\C)[C@@H]1OC(N)=O)C2=O ; what selectivity ratio value has been reported?
OUT: 2.06

IN: What does the record list as selectivity ratio for CO[C@H]1/C=C\C=C(/C)C(=O)NC2=CC(=O)C(NCc3cn(Cc4ccc(F)cc4)nn3)=C(C[C@@H](C)C[C@H](OC)[C@H](O)[C@@H](C)/C=C(\C)[C@@H]1OC(N)=O)C2=O ?
OUT: 1.07

// for each molecule below, give its selectivity ratio
1. CO[C@H]1/C=C\C=C(/C)C(=O)NC2=CC(=O)C(NCc3cn(Cc4ccc(C)cc4)nn3)=C(C[C@@H](C)C[C@H](OC)[C@H](O)[C@@H](C)/C=C(\C)[C@@H]1OC(N)=O)C2=O
2. CO[C@H]1/C=C\C=C(/C)C(=O)NC2=CC(=O)C(NCc3cn(Cc4ccc(Br)cc4)nn3)=C(C[C@@H](C)C[C@H](OC)[C@H](O)[C@@H](C)/C=C(\C)[C@@H]1OC(N)=O)C2=O
3. CO[C@H]1/C=C\C=C(/C)C(=O)NC2=CC(=O)C(NCc3cn([C@@H]4O[C@H](CO)[C@@H](O[C@@H]5O[C@H](CO)[C@H](O)[C@H](O)[C@H]5O)[C@H](O)[C@H]4O)nn3)=C(C[C@@H](C)C[C@H](OC)[C@H](O)[C@@H](C)/C=C(\C)[C@@H]1OC(N)=O)C2=O
4. CO[C@H]1/C=C\C=C(/C)C(=O)NC2=CC(=O)C(NCc3cn(Cc4ccc([N+](=O)[O-])o4)nn3)=C(C[C@@H](C)C[C@H](OC)[C@H](O)[C@@H](C)/C=C(\C)[C@@H]1OC(N)=O)C2=O
5. CO[C@H]1/C=C\C=C(/C)C(=O)NC2=CC(=O)C(NCc3cn(Cc4ccc(C(F)(F)F)cc4)nn3)=C(C[C@@H](C)C[C@H](OC)[C@H](O)[C@@H](C)/C=C(\C)[C@@H]1OC(N)=O)C2=O
6. CCN(CC)CCn1cc(CNC2=C3C[C@@H](C)C[C@H](OC)[C@H](O)[C@@H](C)/C=C(\C)[C@H](OC(N)=O)[C@@H](OC)/C=C\C=C(/C)C(=O)NC(=CC2=O)C3=O)nn1
7. CO[C@H]1/C=C\C=C(/C)C(=O)NC2=CC(=O)C(NCCn3cc(-c4ccsc4)nn3)=C(C[C@@H](C)C[C@H](OC)[C@H](O)[C@@H](C)/C=C(\C)[C@@H]1OC(N)=O)C2=O
8. CO[C@H]1/C=C\C=C(/C)C(=O)NC2=CC(=O)C(NCc3cn(Cc4ccsc4Br)nn3)=C(C[C@@H](C)C[C@H](OC)[C@H](O)[C@@H](C)/C=C(\C)[C@@H]1OC(N)=O)C2=O

OUT:
[1.38, 2.1, 1.45, 1.78, 1.55, 1.88, 2.09, 1.53]
